- target.of.assay: ATP-citrate synthase (Homo sapiens)
- Sequence (P53396 whole entry): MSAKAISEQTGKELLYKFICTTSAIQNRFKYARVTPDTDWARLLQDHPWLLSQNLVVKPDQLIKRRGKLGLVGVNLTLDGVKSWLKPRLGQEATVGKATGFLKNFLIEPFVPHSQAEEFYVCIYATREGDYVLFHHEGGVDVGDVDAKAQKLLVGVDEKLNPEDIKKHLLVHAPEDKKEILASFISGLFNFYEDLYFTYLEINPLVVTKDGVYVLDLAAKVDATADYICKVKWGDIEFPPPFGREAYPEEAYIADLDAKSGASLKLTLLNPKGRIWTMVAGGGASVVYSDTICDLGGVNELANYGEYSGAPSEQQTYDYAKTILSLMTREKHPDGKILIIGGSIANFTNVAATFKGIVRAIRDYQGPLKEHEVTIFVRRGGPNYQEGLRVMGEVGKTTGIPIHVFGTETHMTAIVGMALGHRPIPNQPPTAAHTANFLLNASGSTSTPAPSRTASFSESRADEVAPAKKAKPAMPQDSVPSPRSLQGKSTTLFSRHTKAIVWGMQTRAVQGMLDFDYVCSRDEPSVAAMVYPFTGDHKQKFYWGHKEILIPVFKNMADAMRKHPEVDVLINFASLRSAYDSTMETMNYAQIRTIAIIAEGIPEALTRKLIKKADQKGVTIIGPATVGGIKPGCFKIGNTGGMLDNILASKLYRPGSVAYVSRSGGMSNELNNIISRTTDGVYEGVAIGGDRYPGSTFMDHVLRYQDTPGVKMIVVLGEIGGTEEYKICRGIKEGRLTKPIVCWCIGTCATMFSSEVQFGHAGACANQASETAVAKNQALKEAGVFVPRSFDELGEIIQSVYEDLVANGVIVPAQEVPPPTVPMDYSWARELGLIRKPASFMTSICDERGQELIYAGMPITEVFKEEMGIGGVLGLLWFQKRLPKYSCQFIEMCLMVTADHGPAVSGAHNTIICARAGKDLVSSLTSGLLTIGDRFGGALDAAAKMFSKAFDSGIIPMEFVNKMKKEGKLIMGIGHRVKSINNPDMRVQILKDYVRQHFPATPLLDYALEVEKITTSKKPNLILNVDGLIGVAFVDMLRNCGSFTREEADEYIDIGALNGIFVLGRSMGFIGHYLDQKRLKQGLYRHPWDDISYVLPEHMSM
assay.readout: IC50 (nM)

1: O=C(O)c1ccc(-c2ccc(N3CCN(C(=O)c4ccc(/C(=C/CCCCCCC5(C(=O)O)C=CCC5)CCCCCCC5(C(=O)O)C=CCC5)cc4)CC3)nc2)cc1 (configuration not stated)
2: O=C(c1ccc(/C(=C/CCCCCCC2(C(=O)O)C=CCC2)CCCCCCC2(C(=O)O)C=CCC2)cc1)N1CCN(c2ccccn2)CC1 (configuration not stated)
input: Which has the smaller recorded IC50, 1 or 2 ? Please identify the chosen entry by its label.
output: 2
